experimental_system: Sphingosine 1-phosphate receptor 3 (Homo sapiens)
Sequence (Q99500 whole entry): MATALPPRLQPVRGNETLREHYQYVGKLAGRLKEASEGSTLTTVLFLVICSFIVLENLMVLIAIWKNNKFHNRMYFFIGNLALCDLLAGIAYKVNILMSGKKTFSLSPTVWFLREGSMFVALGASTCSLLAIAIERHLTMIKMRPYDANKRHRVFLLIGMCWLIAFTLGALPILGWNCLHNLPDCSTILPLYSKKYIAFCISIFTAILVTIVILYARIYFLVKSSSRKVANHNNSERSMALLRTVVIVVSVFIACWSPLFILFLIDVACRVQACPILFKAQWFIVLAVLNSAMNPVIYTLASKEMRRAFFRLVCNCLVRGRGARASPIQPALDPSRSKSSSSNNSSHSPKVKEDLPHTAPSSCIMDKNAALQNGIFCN
assay_text: Agonist activity at human S1P3 receptor assessed as effect on calcium mobilization by Gq dependent whole cell assay
Format: functional
endpoint_label: EC50 (nM)

[[record]]
compound = "CCCCCCCCc1ccc2c(c1)CC[C@H]([C@@](C)(N)COP(=O)(O)O)C2"
endpoint_label = "EC50"
data_value = 97.4

[[record]]
compound = "CCCCCCCCc1ccc2c(c1)CC[C@@H](C(N)(CO)COP(=O)(O)O)C2 (stereo in doubt)"
endpoint_label = "EC50"
data_value = 25.7

[[record]]
compound = "CCCCCCCCc1ccc2c(c1)CC[C@H]([C@](C)(N)COP(=O)(O)O)C2"
endpoint_label = "EC50"
data_value = 922

[[record]]
compound = "CCCCCCCCc1ccc2c(c1)CC[C@@H]([C@@](C)(N)COP(=O)(O)O)C2"
endpoint_label = "EC50"
data_value = 38.2

[[record]]
compound = "CCCCCCCCc1ccc2c(c1)CC[C@@H](C(N)(CO)COP(=O)(O)O)C2 (single isomer, unassigned; isomer 1)"
endpoint_label = "EC50"
data_value = 18.7


###

Each entry below lists one item and its recorded pEC50 value.
experimental_system: Sphingosine 1-phosphate receptor 1 (Homo sapiens)
assay_text: Agonist activity at human S1P1 receptor assessed as effect on calcium mobilization by Gi dependent whole cell assay
Format: functional
pEC50: −log10 of the molar value.
endpoint_label: pEC50

[[record]]
compound = "CCCCCCCCc1ccc2c(c1)CC[C@@H](C(N)(CO)COP(=O)(O)O)C2 (single isomer, unassigned; isomer 1)"
experimental_system = "Sphingosine 1-phosphate receptor 1 (Homo sapiens)"
endpoint_label = "pEC50"
data_value = 10.11

[[record]]
compound = "CCCCCCCCc1ccc2c(c1)CC[C@@H](C(N)(CO)COP(=O)(O)O)C2 (stereo in doubt)"
experimental_system = "Sphingosine 1-phosphate receptor 1 (Homo sapiens)"
endpoint_label = "pEC50"
data_value = 9.46

[[record]]
compound = "CCCCCCCCc1ccc2c(c1)CC[C@H]([C@](C)(N)COP(=O)(O)O)C2"
experimental_system = "Sphingosine 1-phosphate receptor 1 (Homo sapiens)"
endpoint_label = "pEC50"
data_value = 7.86

[[record]]
compound = "CCCCCCCCc1ccc2c(c1)CC[C@@H]([C@](C)(N)COP(=O)(O)O)C2"
experimental_system = "Sphingosine 1-phosphate receptor 1 (Homo sapiens)"
endpoint_label = "pEC50"
data_value = 7.71

[[record]]
compound = "CCCCCCCCCCCCC/C=C/[C@@H](O)[C@@H](N)COP(=O)(O)O"
experimental_system = "Sphingosine 1-phosphate receptor 1 (Homo sapiens)"
endpoint_label = "pEC50"
data_value = 10.57

[[record]]
compound = "CCCCCCCCc1ccc2c(c1)CC[C@H]([C@@](C)(N)COP(=O)(O)O)C2"
experimental_system = "Sphingosine 1-phosphate receptor 1 (Homo sapiens)"
endpoint_label = "pEC50"
data_value = 10.74

[[record]]
compound = "CCCCCCCCc1ccc2c(c1)CC[C@@H]([C@@](C)(N)COP(=O)(O)O)C2"
experimental_system = "Sphingosine 1-phosphate receptor 1 (Homo sapiens)"
endpoint_label = "pEC50"
data_value = 10.06


###

assay_text: Clearance in mouse at 1 mg/kg after 1 week
Assay type: ADME, organism-based
Parameters: dose 1 mg/kg
condition_info: in vivo
endpoint_label: clearance

[[record]]
smiles_str = "CCCCCCCCc1ccc2c(c1)CC[C@H]([C@@](C)(N)CO)C2"
data_value = "5.5 mL/min/kg"


###

Each entry below lists one item and its recorded Activity value.
experimental_system: UniProt:Q9NRA0
Sequence (Q9NRA0 whole entry): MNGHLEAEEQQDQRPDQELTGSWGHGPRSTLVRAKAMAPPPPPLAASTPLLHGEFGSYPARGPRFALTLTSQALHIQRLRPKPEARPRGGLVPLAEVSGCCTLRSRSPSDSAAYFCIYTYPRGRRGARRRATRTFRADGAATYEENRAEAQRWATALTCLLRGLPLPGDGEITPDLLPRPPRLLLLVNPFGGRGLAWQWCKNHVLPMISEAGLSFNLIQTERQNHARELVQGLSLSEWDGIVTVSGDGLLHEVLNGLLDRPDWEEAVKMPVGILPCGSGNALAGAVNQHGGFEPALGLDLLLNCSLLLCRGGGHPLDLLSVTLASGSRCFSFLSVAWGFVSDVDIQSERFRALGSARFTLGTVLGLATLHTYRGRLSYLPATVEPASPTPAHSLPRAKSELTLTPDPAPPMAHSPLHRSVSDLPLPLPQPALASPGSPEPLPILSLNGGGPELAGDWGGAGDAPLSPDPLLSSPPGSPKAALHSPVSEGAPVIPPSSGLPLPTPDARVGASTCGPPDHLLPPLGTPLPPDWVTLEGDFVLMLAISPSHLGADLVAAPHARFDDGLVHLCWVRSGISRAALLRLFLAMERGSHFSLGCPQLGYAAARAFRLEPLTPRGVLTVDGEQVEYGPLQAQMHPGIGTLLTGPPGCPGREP
assay_text: Induction of human SphK2 phosphorylation
Set-up: concentration or dose not given beside the values
endpoint_label: Activity (%)

[[record]]
compound = "CCCCCCCCc1ccc2c(c1)CC[C@H]([C@](C)(N)CO)C2"
data_value = 0

[[record]]
compound = "CCCCCCCCc1ccc(CCC(N)(CO)CO)cc1 [FINGOLIMOD]"
data_value = 76

[[record]]
compound = "CCCCCCCCc1ccc2c(c1)CC[C@H](C(N)(CO)CO)C2"
data_value = 3

[[record]]
compound = "CCCCCCCCc1ccc2c(c1)CC[C@H]([C@@](C)(N)CO)C2"
data_value = 77

[[record]]
compound = "CCCCCCCCc1ccc2c(c1)CC[C@@H]([C@](C)(N)CO)C2"
data_value = 0

[[record]]
compound = "CCCCCCCCc1ccc2c(c1)CC[C@@H]([C@@](C)(N)CO)C2"
data_value = 38

[[record]]
compound = "CCCCCCCCc1ccc2c(c1)CC[C@@H](C(N)(CO)CO)C2"
data_value = 9


###

experimental_system: UniProt:O95136
Sequence (O95136 whole entry): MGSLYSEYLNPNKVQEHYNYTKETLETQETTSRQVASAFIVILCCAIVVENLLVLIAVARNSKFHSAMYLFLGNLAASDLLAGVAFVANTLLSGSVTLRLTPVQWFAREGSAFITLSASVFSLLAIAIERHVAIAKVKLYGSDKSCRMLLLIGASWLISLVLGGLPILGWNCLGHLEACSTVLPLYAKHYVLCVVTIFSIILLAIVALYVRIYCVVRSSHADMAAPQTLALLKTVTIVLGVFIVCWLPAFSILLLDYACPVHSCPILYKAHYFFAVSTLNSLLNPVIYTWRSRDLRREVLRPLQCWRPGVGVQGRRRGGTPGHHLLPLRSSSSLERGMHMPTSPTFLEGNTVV
assay_text: Agonist activity at human S1P2 receptor assessed as effect on calcium mobilization by Gq dependent whole cell assay
endpoint_label: EC50

[[record]]
compound = "CCCCCCCCc1ccc2c(c1)CC[C@H]([C@@](C)(N)COP(=O)(O)O)C2"
endpoint_label = "EC50"
data_value = "> 5 µM"

[[record]]
compound = "CCCCCCCCc1ccc2c(c1)CC[C@@H](C(N)(CO)COP(=O)(O)O)C2 (single isomer, unassigned; isomer 1)"
endpoint_label = "EC50"
data_value = "> 5 µM"

[[record]]
compound = "CCCCCCCCc1ccc2c(c1)CC[C@@H](C(N)(CO)COP(=O)(O)O)C2 (stereo in doubt)"
endpoint_label = "EC50"
data_value = "> 5 µM"


###

experimental_system: UniProt:Q9H228
Sequence (Q9H228 whole entry): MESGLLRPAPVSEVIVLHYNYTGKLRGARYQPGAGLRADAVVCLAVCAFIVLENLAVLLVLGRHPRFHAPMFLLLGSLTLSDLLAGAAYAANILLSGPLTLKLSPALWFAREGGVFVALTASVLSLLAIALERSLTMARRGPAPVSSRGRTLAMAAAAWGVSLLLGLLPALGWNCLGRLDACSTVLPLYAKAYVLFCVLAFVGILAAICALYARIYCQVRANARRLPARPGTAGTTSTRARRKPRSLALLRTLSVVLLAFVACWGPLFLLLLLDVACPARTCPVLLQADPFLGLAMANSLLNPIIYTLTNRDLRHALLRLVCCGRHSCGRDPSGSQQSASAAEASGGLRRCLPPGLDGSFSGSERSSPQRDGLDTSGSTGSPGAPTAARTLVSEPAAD
assay_text: Agonist activity at human S1P5 receptor assessed as effect on calcium mobilization by Gq dependent whole cell assay
endpoint_label: EC50 (nM)

[[record]]
molecule = "CCCCCCCCc1ccc2c(c1)CC[C@@H](C(N)(CO)COP(=O)(O)O)C2 (stereo in doubt)"
unit_info = "nM"
data_value = 33

[[record]]
molecule = "CCCCCCCCc1ccc2c(c1)CC[C@H]([C@@](C)(N)COP(=O)(O)O)C2"
unit_info = "nM"
data_value = 1.49

[[record]]
molecule = "CCCCCCCCc1ccc2c(c1)CC[C@@H](C(N)(CO)COP(=O)(O)O)C2 (single isomer, unassigned; isomer 1)"
unit_info = "nM"
data_value = 0.33


###

experimental_system: Sphingosine 1-phosphate receptor 1 (Homo sapiens, UniProt P21453)
Sequence (P21453 whole entry): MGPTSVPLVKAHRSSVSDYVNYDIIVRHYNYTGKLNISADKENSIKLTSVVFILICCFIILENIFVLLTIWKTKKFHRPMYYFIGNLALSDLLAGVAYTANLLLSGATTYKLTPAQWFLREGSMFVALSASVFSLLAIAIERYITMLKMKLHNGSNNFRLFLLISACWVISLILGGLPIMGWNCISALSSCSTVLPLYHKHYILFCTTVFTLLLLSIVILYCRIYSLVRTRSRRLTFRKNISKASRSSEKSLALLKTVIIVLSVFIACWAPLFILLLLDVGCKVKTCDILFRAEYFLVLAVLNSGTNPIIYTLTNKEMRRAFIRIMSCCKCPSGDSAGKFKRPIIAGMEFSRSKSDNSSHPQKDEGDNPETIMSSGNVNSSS
assay_text: Agonist activity at human S1P1 receptor assessed as effect on calcium mobilization by Gq dependent whole cell assay
Type: functional
endpoint_label: EC50 (nM)

[[record]]
compound = "CCCCCCCCc1ccc2c(c1)CC[C@H]([C@](C)(N)COP(=O)(O)O)C2"
endpoint_label = "EC50"
unit_info = "nM"
modifier_sign = ">"
data_value = 5000

[[record]]
compound = "CCCCCCCCc1ccc2c(c1)CC[C@@H]([C@@](C)(N)COP(=O)(O)O)C2"
endpoint_label = "EC50"
unit_info = "nM"
modifier_sign = "="
data_value = 5.62

[[record]]
compound = "CCCCCCCCc1ccc2c(c1)CC[C@@H](C(N)(CO)COP(=O)(O)O)C2 (stereo in doubt)"
endpoint_label = "EC50"
unit_info = "nM"
modifier_sign = "="
data_value = 133

[[record]]
compound = "CCCCCCCCc1ccc2c(c1)CC[C@H]([C@@](C)(N)COP(=O)(O)O)C2"
endpoint_label = "EC50"
unit_info = "nM"
modifier_sign = "="
data_value = 1.79

[[record]]
compound = "CCCCCCCCc1ccc2c(c1)CC[C@@H](C(N)(CO)COP(=O)(O)O)C2 (single isomer, unassigned; isomer 1)"
endpoint_label = "EC50"
unit_info = "nM"
modifier_sign = "="
data_value = 1.95


###

experimental_system: Sphingosine 1-phosphate receptor 4 (Homo sapiens, UniProt O95977)
Sequence (O95977 whole entry): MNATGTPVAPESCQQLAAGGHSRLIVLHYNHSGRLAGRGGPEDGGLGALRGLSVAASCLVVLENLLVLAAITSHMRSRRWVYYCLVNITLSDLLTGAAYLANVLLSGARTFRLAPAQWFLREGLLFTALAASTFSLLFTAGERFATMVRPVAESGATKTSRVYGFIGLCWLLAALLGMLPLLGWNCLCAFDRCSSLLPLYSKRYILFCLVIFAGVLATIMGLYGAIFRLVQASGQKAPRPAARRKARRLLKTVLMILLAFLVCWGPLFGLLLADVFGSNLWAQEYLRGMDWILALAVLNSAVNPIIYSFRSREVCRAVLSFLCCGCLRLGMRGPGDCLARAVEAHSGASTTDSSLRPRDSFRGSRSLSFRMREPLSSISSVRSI
assay_text: Agonist activity at human S1P4 receptor assessed as effect on calcium mobilization by Gq dependent whole cell assay
Doc: threshold 40 nM (exclusive). Items with EC50 beneath it return 1; others return -1.

[[record]]
molecule = "CCCCCCCCc1ccc(CC[C@](N)(CO)COP(=O)(O)O)cc1"
experimental_system = "Sphingosine 1-phosphate receptor 4 (Homo sapiens, UniProt O95977)"
class = 1

[[record]]
molecule = "CCCCCCCCc1ccc(CC[C@@](N)(CO)COP(=O)(O)O)cc1"
experimental_system = "Sphingosine 1-phosphate receptor 4 (Homo sapiens, UniProt O95977)"
class = -1

[[record]]
molecule = "CCCCCCCCc1ccc2c(c1)CC[C@H]([C@@](C)(N)COP(=O)(O)O)C2"
experimental_system = "Sphingosine 1-phosphate receptor 4 (Homo sapiens, UniProt O95977)"
class = 1

[[record]]
molecule = "CCCCCCCCc1ccc2c(c1)CC[C@@H](C(N)(CO)COP(=O)(O)O)C2 (stereo in doubt)"
experimental_system = "Sphingosine 1-phosphate receptor 4 (Homo sapiens, UniProt O95977)"
class = -1

[[record]]
molecule = "CCCCCCCCc1ccc2c(c1)CC[C@@H](C(N)(CO)COP(=O)(O)O)C2 (single isomer, unassigned; isomer 1)"
experimental_system = "Sphingosine 1-phosphate receptor 4 (Homo sapiens, UniProt O95977)"
class = 1

